Examples of molecules with documented Rhizoctonia solani (Rice sheath blight) inhibition of mycelial growth rating follow.
Tested on: Rhizoctonia solani
Details: 10 ppm; 3–7 days of incubation

# count of solved cases: 5
// field: Rhizoctonia solani (Rice sheath blight) inhibition of mycelial growth rating; key: CC1CCN(c2nc(N(C)C#N)nc(Cl)c2-c2c(F)cc(F)cc2F)CC1 [Example 7] ; value = 0

// field: Rhizoctonia solani (Rice sheath blight) inhibition of mycelial growth rating; key: CCC(C)Nc1nc(N(C)C#N)nc(Cl)c1-c1c(F)cccc1Cl (stereo not drawn) [Example 6] ; value = 0

// field: Rhizoctonia solani (Rice sheath blight) inhibition of mycelial growth rating; key: CC(N(C)c1nc(N(C)C#N)nc(Cl)c1-c1c(F)cc(F)cc1F)C(F)(F)F (stereo not drawn) [Example 8] ; value = 7

// field: Rhizoctonia solani (Rice sheath blight) inhibition of mycelial growth rating; key: CC1CCN(c2nc(N(C)C#N)nc(Cl)c2-c2c(F)cccc2Cl)CC1 [Example 5] ; value = 0

// field: Rhizoctonia solani (Rice sheath blight) inhibition of mycelial growth rating; key: CC(Nc1nc(N(C)C#N)nc(Cl)c1-c1c(F)cc(F)cc1F)C(F)(F)F (stereo not drawn) [Example 1] ; value = 7

Now look at this entry.
// field: Rhizoctonia solani (Rice sheath blight) inhibition of mycelial growth rating; key: CN(C#N)c1nc(Cl)c(-c2c(F)ccc(F)c2F)c(NC2CCCC2)n1 [Example 4] ; value = 7

---

Tested on: Pyricularia grisea sp. oryzae
Type: in vivo
Conditions: Rice Blast; plants sprayed with 200 ppm test solution, inoculated the same day
ENDPOINT NAME: RB disease control rating

// field: RB disease control rating; key: CN(C#N)c1nc(Cl)c(-c2c(F)ccc(F)c2F)c(NC2CCCC2)n1 [Example 4] ; value = 3 (30–44)

// field: RB disease control rating; key: CCCCN(C#N)c1nc(Cl)c(-c2c(F)cc(F)cc2F)c(NC(C)C(F)(F)F)n1 (centres unmarked) [Example 2] ; value = 0 (0)

// field: RB disease control rating; key: CC(C)Nc1nc(N(C)C#N)nc(Cl)c1-c1c(F)cc(F)cc1F [Example 3] ; value = 5 (60–74)

// field: RB disease control rating; key: CCC(C)Nc1nc(N(C)C#N)nc(Cl)c1-c1c(F)cccc1Cl (centres unmarked) [Example 6] ; value = 6 (75–89)

Now look at this entry.
// field: RB disease control rating; key: CC1CCN(c2nc(N(C)C#N)nc(Cl)c2-c2c(F)cccc2Cl)CC1 [Example 5] ; value = 4 (45–59)

Where these numbers come from: patent US7230104B2
